B1: Glucocorticoid receptor, residues 419 to 494; numbered along this chain, P04150 (parent)
chain: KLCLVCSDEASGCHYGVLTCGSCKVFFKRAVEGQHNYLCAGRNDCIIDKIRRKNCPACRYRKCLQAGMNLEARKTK

variants of: B1; assay: abundance fitness (aPCA) (normalised: wild type 0, dead -1); higher = more abundant; growth selection in yeast, the domain comes from the species named; settings: Homo sapiens
Parameter: abundance fitness

>>> value("KLCLVCSDEASGCHYGVLTCGSCKVFFKRAVEGQHNYLCAGRNDCIIDKPRRKNCPACRYRKCLQAGMNLEARKTK [I50P]")
0.081
>>> value("KLCLVCSDEASGCHYGVLTCGSCKVFFKRAVEGQHNYLCAGRNDCIIDKIRRKQCPACRYRKCLQAGMNLEARKTK [N54Q]")
-0.006
>>> value("KLCLVCSDEASGCHYGVLTCGSCKVFFKRAVEGQHNYLCAGRNDCIIDKIRRKNCPACRYRKCLQAGYNLEARKTK [M68Y]")
-0.215
>>> value("KLCLVCSDEASGCHYGVLTCGSCKVDFKRAVEGQHNYLCAGRNDCIIDKIRRKNCPACRYRKCLQAGMNLEARKTK [F26D]")
-1.01
>>> value("KLCLVCSDEASGCHYGVLTCGSCKVFFKRAVEGQHNYLCAGRNDCAIDKIRRKNCPACRYRKCLQAGMNLEARKTK [I46A]")
0.031
>>> value("KLCLVCSDEASGCHYGVLTCGSCVVFFKRAVEGQHNYLCAGRNDCIIDKIRRKNCPACRYRKCLQAGMNLEARKTK [K24V]")
0.015
>>> value("KLCLVCSDEASGCHYGVLTCGSCKVFFKRAVEGQHNYICAGRNDCIIDKIRRKNCPACRYRKCLQAGMNLEARKTK [L38I]")
-0.043
>>> value("KLCLVCSDEASGCHYGVLTCGSCKVFFKRAVEGQHTYLCAGRNDCIIDKIRRKNCPACRYRKCLQAGMNLEARKTK [N36T]")
-0.008
>>> value("KLCLVCSDEKSGCHYGVLTCGSCKVFFKRAVEGQHNYLCAGRNDCIIDKIRRKNCPACRYRKCLQAGMNLEARKTK [A10K]")
-0.408
>>> value("KLCLVCSDEASGCHYGVLTCGSCKVFFKRAVEGQHSYLCAGRNDCIIDKIRRKNCPACRYRKCLQAGMNLEARKTK [N36S]")
0.022
>>> value("KLCLVCSDEASGCHYGVLTCGSCKVFFKRAREGQHNYLCAGRNDCIIDKIRRKNCPACRYRKCLQAGMNLEARKTK [V31R]")
-0.007
>>> value("KLCLVCSDEASGCHYGFLTCGSCKVFFKRAVEGQHNYLCAGRNDCIIDKIRRKNCPACRYRKCLQAGMNLEARKTK [V17F]")
-0.355
>>> value("KLCLVCSDEASGCHYGVLTCGSCKVFRKRAVEGQHNYLCAGRNDCIIDKIRRKNCPACRYRKCLQAGMNLEARKTK [F27R]")
-0.678
>>> value("KLCSVCSDEASGCHYGVLTCGSCKVFFKRAVEGQHNYLCAGRNDCIIDKIRRKNCPACRYRKCLQAGMNLEARKTK [L4S]")
-0.026
>>> value("KLCLVCSDEASGCHYGVLTCGSCKVFFKRAVEGQHNYLCAGRNECIIDKIRRKNCPACRYRKCLQAGMNLEARKTK [D44E]")
0.032
>>> value("KLCLVCSDEASGCHYGVLTCGSCKVFFKRAVEGQHNYLCAGRNDCIIDKIRRKNCPAKRYRKCLQAGMNLEARKTK [C58K]")
-1.06
>>> value("KLCLVCSQEASGCHYGVLTCGSCKVFFKRAVEGQHNYLCAGRNDCIIDKIRRKNCPACRYRKCLQAGMNLEARKTK [D8Q]")
-0.035
>>> value("KLCKVCSDEASGCHYGVLTCGSCKVFFKRAVEGQHNYLCAGRNDCIIDKIRRKNCPACRYRKCLQAGMNLEARKTK [L4K]")
0.109
>>> value("KLCLVCSDEASGCHYGVLTCGSCKVFFKRAVEGQHNYLCCGRNDCIIDKIRRKNCPACRYRKCLQAGMNLEARKTK [A40C]")
-0.137
>>> value("KLCLVCSDEASGCHYGVLTCGSCKVFFKRAVEGQHNYLCAGRNDCLIDKIRRKNCPACRYRKCLQAGMNLEARKTK [I46L]")
-0.039
>>> value("KLCLVCSDEASGCHYGVLTCGSCKVFFKRAVEGQHNYLCAGRNDCIIDKIRRKNCPACRYRKCLQAGMNLEARMTK [K74M]")
0.009
>>> value("KLCLVCSDEASGCHYGVLTCGSCKVFFKRAVEGQHNYLDAGRNDCIIDKIRRKNCPACRYRKCLQAGMNLEARKTK [C39D]")
-0.863

Cited source: the Human Domainome abundance scans (Beltran et al. 2025)
